- study_system: T1, Recombinant human EGFR protein (Active) (ab155639) (human, UniProt P00533 25-645, labelled with RED-tris-NTA 2nd Generation dye)
- T1 construct: epidermal growth factor receptor (EGFR, ErbB-1), human, recombinant; also called EGF receptor; ErbB-1; source: bought: Abcam (ab155639), recombinant
- assay_info: MST; RED-tris-NTA-labelled EGFR 25 nM, ligand in a 16-step 1:1 dilution series in PBS-T, 30 min at room temperature; assay concentration of the ligand 3 mM
- conditions_used: both partners purified
value_type: Kd (µM)
Quick note: give the figure in µM, leave out the unit.

Query string: Any idea what Kd was measured for HDGYCLHDGVCMY (EGF, human, residues 10-22; numbers count on: the mature protein; source: synthetic peptide (SPPS, Fmoc; crude, without preparative HPLC)) [EGF fragment 10–22 (HDGYCLHDGVCMY)] ?
Result string: 416
